Assay: Ocular tissue and plasma pharmacokinetics, 15 mg/kg single and BID oral, Dutch Belted rabbits (Example 3/5)
Format: in vivo
Conditions: Dutch Belted, rabbit, retina, po, 15 mg/kg, DB rabbit, 15 mg/kg BID oral, Day 15, 240 h; read-out: Mean retina concentration
RECORDED METRIC: concentration at 240 h (ng/g)
Could you give me the number in ng/g? Just the number is fine.

Prompt: Give its concentration at 240 h value. Item: CC(=O)c1nn(CC(=O)N2C[C@H](F)C[C@H]2C(=O)Nc2cccc(Br)n2)c2ccc(-c3cnc(C)nc3)cc12
Completion: 25.3

###

Experiment: Ocular tissue and plasma pharmacokinetics, 50 mg/kg BID oral, Dutch Belted rabbits (Example 4/5)
Format: in vivo
Conditions: male, Dutch Belted, po; Retina, DB rabbit, 50 mg/kg BID, Day 15
RECORDED METRIC: Tmax (h)
Express your answer in h, writing the number without its unit.

Prompt: Fill blank: measured Tmax of the compound CC(=O)c1nn(CC(=O)N2C[C@H](F)C[C@H]2C(=O)Nc2cccc(Br)n2)c2ccc(-c3cnc(C)nc3)cc12 [Compound 1] is ____.
Completion: 1

###

Test: Ocular tissue distribution and pharmacokinetics, 7.5 and 15 mg/kg oral, pigmented Dutch Belted rabbits (Example 7)
Type: in vivo
Conditions: male, Dutch Belted, rabbit, plasma, po, […], plasma, male DB rabbits, Group 2, Day 15, […] BID oral (15 mg/kg/day); read-out: AUC0-12
RECORDED METRIC: AUC(0-t) (ng·h/mL)
Answer with a number only, understood to be in ng·h/mL.

Prompt: Item CC(=O)c1nn(CC(=O)N2C[C@H](F)C[C@H]2C(=O)Nc2cccc(Br)n2)c2ccc(-c3cnc(C)nc3)cc12 [Compound 1] has what recorded AUC(0-t)?
Completion: 1910

###

Assay: Ocular tissue and plasma pharmacokinetics, 15 mg/kg single and BID oral, Dutch Belted rabbits (Example 3/5)
Assay type: in vivo
Settings: Dutch Belted, rabbit, choroid-RPE, po, 15 mg/kg, Choroid-RPE, DB rabbit, 15 mg/kg BID, Day 15
RECORDED METRIC: half-life (h)
Just the number please, in h, no unit attached.

Prompt: Endpoint output: half-life of CC(=O)c1nn(CC(=O)N2C[C@H](F)C[C@H]2C(=O)Nc2cccc(Br)n2)c2ccc(-c3cnc(C)nc3)cc12 . Value?
Completion: 107

###

Test: Ocular tissue distribution and pharmacokinetics, 15 mg/kg BID oral, nonpigmented New Zealand White rabbits (Example 7)
Format: in vivo
Details: New Zealand White, rabbit, iris-ciliary body, oral; NZW rabbits, Day 15, 15 mg/kg BID, 1 hr; read-out: Mean Iris-Ciliary Concentration
RECORDED METRIC: concentration at 1 h (ng/g)
Kindly provide the numeric value in ng/g only, without the unit symbol.

Prompt: What does the data say about its concentration at 1 h? Entry: CC(=O)c1nn(CC(=O)N2C[C@H](F)C[C@H]2C(=O)Nc2cccc(Br)n2)c2ccc(-c3cnc(C)nc3)cc12 [Compound 1]
Completion: 64.9

###

Assay: Ocular tissue distribution and pharmacokinetics, 7.5 and 15 mg/kg oral, pigmented Dutch Belted rabbits (Example 7)
Format: in vivo
Settings: Dutch Belted, rabbit, retina, oral, 15 mg/kg BID, DB rabbits, Day 15, 15 mg/kg BID, 240 hr; read-out: Mean Retina Concentration
RECORDED METRIC: concentration at 240 h

Prompt: Please report the recorded concentration at 240 h for CC(=O)c1nn(CC(=O)N2C[C@H](F)C[C@H]2C(=O)Nc2cccc(Br)n2)c2ccc(-c3cnc(C)nc3)cc12 [Compound 1] .
Completion: 19.7 ng/g
